Hey, just so you know, these numbers are from patent US11141495B2.

Target: Aβ(1-40) fibrils (Homo sapiens)
Construct: Aβ(1-40) peptide (rPeptide, Bogart, Ga.); purchased rPeptide, Bogart, Ga
Sequence (P05067 672-711): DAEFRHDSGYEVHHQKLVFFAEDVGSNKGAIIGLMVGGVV
Experiment: Binding assay of compounds or compound-labeled liposomes with amyloid fibrils (fluorescence of washed fibrils)
assayMetric: pKd
One number for each entry, as −log10 of the molar value.

Entry OCCN(CCO)c1ccc(/C=C/c2ccncn2)cc1 : pKd on Aβ(1-40) fibrils (Homo sapiens) = 5.30

---

Molecular target: Aβ(1-40) fibrils (Homo sapiens)
Construct: Aβ(1-40) peptide (rPeptide, Bogart, Ga.); purchased rPeptide, Bogart, Ga
Assay: Binding assay of compounds or compound-labeled liposomes with amyloid fibrils (fluorescence of washed fibrils)
Details: 20 μM fibrils; read-out: Kd, binding constant to fibrils (calculated fit, monolayer binding equation)
assayMetric: pKd
Numbers only, as −log10 of the molar value.

Reading of pKd for CN(CCO)c1ccc(/C=C/c2ccncn2)cc1 with Aβ(1-40) fibrils (Homo sapiens): 5.30
